test-details: Cytotoxicity (CC50) in HepDE19 cells, CCK-8 cell viability
Assay type: cell-based
measurement-conditions: human, HepDE19 cells; read-out: CC50
Please note: CC50 at 5 days exactly at 40 µM is NOT MET. Only values below 40 µM get MET.

[
  {
    "molecule": "CCOC(=O)C1=C(CN2CC(F)(F)C[C@H]2C(=O)O)NC(c2nccs2)=N[C@H]1c1ccc(F)cc1Cl",
    "discrete-label": "NOT MET"
  }
]

Ask: Is 40 µM strictly greater than the compound's reported CC50 at 5 days? compound: CCOC(=O)C1=C(CN2CC(F)(F)CC[C@H]2C(=O)O)NC(c2nccs2)=N[C@H]1c1ccccc1Cl
Reply: NOT MET

Ask: Is 40 µM strictly greater than the compound's reported CC50 at 5 days? compound: CCOC(=O)C1=C(CN2CCO[C@H](C)[C@H]2C(=O)O)NC(c2nccs2)=N[C@H]1c1ccccc1Cl
Reply: NOT MET

Ask: Is 40 µM strictly greater than the compound's reported CC50 at 5 days? compound: CCOC(=O)C1=C(CN2CCOC[C@H]2C(=O)O)NC(c2nccs2)=N[C@H]1c1ccc(Cl)c(F)c1
Reply: MET

Ask: Is 40 µM strictly greater than the compound's reported CC50 at 5 days? compound: COC(=O)C1=C(CN2CC(F)(F)C[C@H]2C(=O)O)NC(c2nc(C(C)C)cs2)=N[C@H]1c1ccc(F)cc1Cl
Reply: MET

Ask: Is 40 µM strictly greater than the compound's reported CC50 at 5 days? compound: COC(=O)C1=C(CN2CCOC[C@H]2C(=O)O)NC(c2ncoc2C)=N[C@H]1c1ccc(F)cc1Br
Reply: NOT MET

Ask: Is 40 µM strictly greater than the compound's reported CC50 at 5 days? compound: CCOC(=O)C1=C(CN2CCOC[C@H]2C(=O)O)NC(c2nccn2C)=N[C@H]1c1ccc(F)cc1Cl
Reply: NOT MET

Ask: Is 40 µM strictly greater than the compound's reported CC50 at 5 days? compound: CCOC(=O)C1=C(CN2CCOC[C@H]2C(=O)O)NC(c2nccs2)=N[C@H]1c1ccc(F)c(F)c1
Reply: NOT MET

Ask: Is 40 µM strictly greater than the compound's reported CC50 at 5 days? compound: COC(=O)C1=C(CN2CC(F)(F)C[C@H]2C(=O)O)NC(c2nc(C)cs2)=N[C@H]1c1ccc(F)cc1Cl
Reply: MET

* * *

Tested on: HBV
test-details: Anti-HBV activity in vitro in HepG2.2.15 cells (extracellular HBV DNA by qPCR)
Type: cell-based, Hepatitis B virus
measurement-conditions: Hepatitis B virus; HepG2.2.15 cells; in-house data; read-out: EC50
For each record, write down the corresponding pEC50.
Numbers only, as −log10 of the molar value.

Illustrative cases are given below, each with its answer.
[
  {
    "molecule": "CCOC(=O)C1=C(CN2CCOC[C@H]2C(=O)O)NC(c2nccs2)=N[C@H]1c1ccc(Cl)c(Cl)c1",
    "numeric-readout": 7.80
  },
  {
    "molecule": "COC(=O)C1=C(CN2CC(F)(F)C[C@H]2C(=O)O)NC(c2cc(F)cs2)=N[C@H]1c1ccc(F)cc1Cl",
    "numeric-readout": 8.03
  },
  {
    "molecule": "COC(=O)C1=C(CN2CCO[C@H](C)[C@H]2C(=O)O)NC(c2nccs2)=N[C@H]1c1ccc(F)cc1Cl",
    "numeric-readout": 8.15
  },
  {
    "molecule": "O=C(OCC(F)(F)F)C1=C(CN2CCOC[C@H]2C(=O)O)NC(c2nccs2)=N[C@H]1c1ccc(F)cc1Cl",
    "numeric-readout": 7.89
  },
  {
    "molecule": "CCOC(=O)C1=C(CN2CCOC[C@H]2C(=O)O)NC(c2nccs2)=N[C@H]1c1ccc(F)cc1",
    "numeric-readout": 7.85
  }
]

Hi there! I need pEC50 for each item below, if you can.
1. CCOC(=O)C1=C(CN2CC(F)(F)C[C@H]2C(=O)O)NC(c2nccn2C)=N[C@H]1c1ccc(F)c(F)c1
2. CCCOC(=O)C1=C(CN2CCOC[C@H]2C(=O)O)NC(c2nccs2)=N[C@H]1c1ccc(F)cc1Cl

Reply:
1: 7.82; 2: 7.92

* * *

For each record, write down the corresponding Human Hepatic Clearance.
test-details: Metabolic stability study in human microsome
Assay type: in vitro ADME
Answers are plain numbers, in mL/min/kg.

[
  {
    "compound": "CCOC(=O)C1=C(CN2CCOC[C@H]2C(=O)O)NC(c2nccs2)=N[C@H]1c1ccccc1Br",
    "unit-abbrev": "mL/min/kg",
    "Human Hepatic Clearance": 2.44
  }
]

Hi there! I need Human Hepatic Clearance for each item below, if you can.
1. CCOC(=O)C1=C(CN2CCOC[C@H]2C(=O)O)NC(c2ncoc2C)=N[C@H]1c1ccc(F)cc1Br
2. COC(=O)C1=C(CN2CCSCC2C(=O)O)NC(c2nccs2)=N[C@H]1c1ccc(F)cc1Cl (stereo in doubt)
3. COC(=O)C1=C(CN2CCOC[C@H]2C(=O)O)NC(c2nc(C(F)F)cs2)=N[C@H]1c1ccc(F)cc1Cl
4. COC(=O)C1=C(CN2CC(F)(F)C[C@H]2C(=O)O)NC(c2nccn2C)=N[C@H]1c1ccc(F)cc1Cl
5. CCOC(=O)C1=C(CN2CCOC[C@H]2C(=O)O)NC(c2nccs2)=N[C@H]1c1ccc(Br)cc1F
6. CCOC(=O)C1=C(CN2CCO[C@H](C)[C@H]2C(=O)O)NC(c2nccs2)=N[C@H]1c1cccc(F)c1Cl
7. COC(=O)C1=C(CN2CCOC[C@H]2C(=O)O)NC(c2ncoc2C)=N[C@H]1c1ccc(F)cc1Cl

Reply:
[0, 1.62, 6.46, 5.04, 1.24, 0.1, 0.23]

* * *

test-details: Lyophilisation solubility assay (Lysa)
Assay type: physicochemical
measurement-conditions: phosphate buffer, pH 6.5, aqueous buffer, thermodynamic from solid
For each record, write down the corresponding solubility thermodynamic.

[
  {
    "compound": "COC(=O)C1=C(CN2CCO[C@H](C)[C@H]2C(=O)O)NC(c2nccs2)=N[C@H]1c1ccc(F)cc1Cl",
    "solubility thermodynamic": "> 667 µg/mL"
  },
  {
    "compound": "COC(=O)C1=C(CN2CC(F)(F)C[C@H]2C(=O)O)NC(c2nc(C(F)(F)F)cs2)=N[C@H]1c1ccc(F)cc1Cl",
    "solubility thermodynamic": "546 µg/mL"
  },
  {
    "compound": "COC(=O)C1=C(CN2CCOC[C@@]2(C)C(=O)O)NC(c2nccs2)=N[C@H]1c1ccc(F)cc1Cl",
    "solubility thermodynamic": "600 µg/mL"
  },
  {
    "compound": "COC(=O)C1=C(CN2C[C@H](C(=O)O)CC(F)(F)C2)NC(c2nccs2)=N[C@H]1c1ccc(F)cc1Cl",
    "solubility thermodynamic": "> 644 µg/mL"
  }
]

Hi there! I need solubility thermodynamic for each item below, if you can.
1. COC(=O)C1=C(CN2CCOC[C@H]2C(=O)O)NC(c2nccn2C)=NC1c1ccc(F)cc1Cl (stereo partly shown)
2. CCOC(=O)C1=C(CN2CC(F)(F)C[C@H]2C(=O)O)NC(c2nccs2)=N[C@H]1c1ccc(F)cc1Cl
3. CCOC(=O)C1=C(CN2CCOC[C@H]2C(=O)O)NC(c2nccs2)=N[C@H]1c1ccc(F)cc1Cl

Reply:
["594 µg/mL", "531 µg/mL", "630 µg/mL"]

* * *

For each record, write down the corresponding solubility thermodynamic.
test-details: Lyophilisation solubility assay (Lysa)
Format: physicochemical
measurement-conditions: phosphate buffer, pH 6.5, aqueous buffer, thermodynamic from solid
Answers are plain numbers, in µg/mL.

[
  {
    "compound": "COC(=O)C1=C(CN2CC(F)(F)C[C@H]2C(=O)O)NC(c2nccs2)=N[C@H]1c1ccc(Br)cc1Cl [Example 29]",
    "unit-abbrev": "µg/mL",
    "numeric-readout": 420
  }
]

Consider the additional compound presented here.
Ask: For the compound COC(=O)C1=C(CN2CCOC[C@H]2C(=O)O)NC(c2nc(SC)cs2)=N[C@H]1c1ccc(F)cc1Cl [Example 61] , give its measured solubility thermodynamic value.
Reply: 495

* * *

test-details: Cytotoxicity (CC50) in HepDE19 cells, CCK-8 cell viability
Type: cell-based
measurement-conditions: human, HepDE19 cells; read-out: CC50
measured-metric: CC50 at 5 days

Illustrative cases are given below, each with its answer.
[
  {
    "compound": "COC(=O)C1=C(CN2CCOC[C@H]2C(=O)O)NC(c2nccs2)=N[C@H]1c1ccc(Cl)cc1F [Example 75]",
    "CC50 at 5 days": "> 100 µM"
  },
  {
    "compound": "CCOC(=O)C1=C(CN2CCOC[C@H]2C(=O)O)NC(c2nccs2)=N[C@H]1c1ccccc1Br [Example 127]",
    "CC50 at 5 days": "> 100 µM"
  }
]

Ask: For the compound COC(=O)C1=C(CN2CCO[C@H](C)[C@H]2C(=O)O)NC(c2nccs2)=N[C@H]1c1ccccc1Br [Example 119] , give its measured CC50 at 5 days value.
Reply: > 100 µM
